tested on: human GPR120 (Homo sapiens)
Construct: host or cells: HEK293 cells co-expressing Gqi5
Sequence (Q5NUL3 1-361): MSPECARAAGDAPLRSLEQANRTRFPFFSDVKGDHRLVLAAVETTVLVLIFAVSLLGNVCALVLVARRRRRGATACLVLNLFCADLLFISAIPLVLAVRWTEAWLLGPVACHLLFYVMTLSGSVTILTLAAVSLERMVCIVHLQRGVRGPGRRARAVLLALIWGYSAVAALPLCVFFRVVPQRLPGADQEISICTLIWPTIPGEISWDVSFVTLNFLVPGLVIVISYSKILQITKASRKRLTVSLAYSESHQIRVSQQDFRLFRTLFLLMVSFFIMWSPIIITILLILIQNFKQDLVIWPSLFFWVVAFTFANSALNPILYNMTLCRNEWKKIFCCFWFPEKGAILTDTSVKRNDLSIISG
method summary: Intracellular Ca2+ assay in human GPR120 stable cell line (HEK293 co-expressing Gqi5), Flexstation
Assay type: cell-based
conditions used: % activity at 5 μM compared to the maximal activity of GW9508 at 6.7 μM (=100%); human GPR120 cells, Ca2+ fluorescence
experimental endpoint: % Activity (GW9508 Reference Compound) (%)

Cc1cc(OCc2cc(F)cc3c2OC(C)(C)C3)c(F)cc1CCC(=O)O: 143.21
CC1(C)Cc2cc(F)cc(COc3ccc4c(c3)CC[C@@H]4CC(=O)O)c2O1: 106
CC1(C)Cc2cc(Cl)cc(COc3ccc(CCC(=O)O)c(-c4ccccc4)c3)c2O1: 133.8
CC1(C)Cc2cc(Cl)cc(COc3ccc4c(c3)CC[C@H]4CC(=O)O)c2O1: 138.42
